- test system: human EDG8 (S1PR5) receptor (Homo sapiens)
- Construct: carries the transgenes human EDG8 (S1PR5) receptor (Acession number NP_110387.1)
- Sequence (Q9H228 whole entry): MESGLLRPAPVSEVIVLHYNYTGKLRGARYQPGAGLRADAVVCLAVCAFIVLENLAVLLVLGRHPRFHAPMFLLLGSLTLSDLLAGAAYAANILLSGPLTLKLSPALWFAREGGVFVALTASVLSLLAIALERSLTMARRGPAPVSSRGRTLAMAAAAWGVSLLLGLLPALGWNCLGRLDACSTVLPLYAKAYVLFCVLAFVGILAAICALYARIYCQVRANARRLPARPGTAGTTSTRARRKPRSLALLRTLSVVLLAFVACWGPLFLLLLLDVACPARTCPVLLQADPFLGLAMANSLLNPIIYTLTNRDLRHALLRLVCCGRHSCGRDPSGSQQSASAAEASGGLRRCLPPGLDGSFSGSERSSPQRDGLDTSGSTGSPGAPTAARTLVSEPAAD
- assay method text: Aequorin assay, agonist potency, CHO-A21-EDG8#12 cells
- experimental conditions: agonist mode, aequorin luminescence; read-out: S1P5 EC50 range #
Where a name gives a salt, the structure may show the parent alone.
Field: EC50. Provide a value for each of the compounds that follow.

CCOc1ccc(C#Cc2ccc3c(c2)CC2(C3)CN(C3CC(C(=O)O)C3)C2)cc1 (centres unmarked) [Example 98] = 0.01 to 0.1 µM
O=C(O)CN1CC2(Cc3ccc(OCc4c(F)cccc4F)cc3C2)C1 [Example 13] = 0.01 to 0.1 µM
O=C(O)C1(CN2CC3(Cc4ccc(OCc5ccc(Cl)cc5Cl)cc4C3)C2)CC1 [Example 38] = 1 to 10 µM
O=C(O)CN1CC2(Cc3ccc(OCc4ccc(Br)cc4Cl)cc3C2)C1 [Example 22] = 0.01 to 0.1 µM
COc1ccc(COc2ccc3c(c2)CC2(C3)CN(CC3(C(=O)O)CC3)C2)c(Cl)c1 [Example 40] = 1 to 10 µM

Provide EC50 values for the following items, in order.
1. O=C(O)CN1CC2(Cc3ccc(OCc4ccccc4)cc3C2)C1 [Example 8]
2. N#Cc1ccc(COc2ccc3c(c2)CC2(C3)CN(CC3(C(=O)O)CC3)C2)cc1 [Example 142]
3. O=C(O)CN1CC2(Cc3ccc(OCc4c(Cl)cccc4Cl)cc3C2)C1 [Example 109]
4. CCc1cccc(F)c1COc1ccc2c(c1)CC1(CCN(CC(=O)O)CC1)C2 [Example 159, hydrochloride]
5. O=C(O)C1(CN2CC3(Cc4ccc(OC5Cc6ccccc6C5)cc4C3)C2)CC1 [Example 127]
6. O=C(O)C1(CN2CC3(Cc4ccc(OCCC5CCCCC5)cc4C3)C2)CC1 [Example 132]
7. O=C(O)C1(CN2CC3(Cc4ccc(OCc5c(Cl)cccc5Cl)cc4C3)C2)CC1 [Example 46]
8. O=C(O)CN1CC2(Cc3ccc(OC4CCc5cc(Cl)cc(Cl)c54)cc3C2)C1 (centres unmarked) [Example 69]

0.1 to 1 µM
1 to 10 µM
≤ 0.01 µM
≤ 0.01 µM
1 to 10 µM
1 to 10 µM
≤ 0.01 µM
≤ 0.01 µM

Using the record for O=C(O)CN1CC2(Cc3ccc(C#Cc4ccc(OC5CCCC5)nc4)cc3C2)C1 [Example 78] , report its EC50.
≤ 0.01 µM

* * *

- test system: UniProt O95977
- Sequence (O95977 whole entry): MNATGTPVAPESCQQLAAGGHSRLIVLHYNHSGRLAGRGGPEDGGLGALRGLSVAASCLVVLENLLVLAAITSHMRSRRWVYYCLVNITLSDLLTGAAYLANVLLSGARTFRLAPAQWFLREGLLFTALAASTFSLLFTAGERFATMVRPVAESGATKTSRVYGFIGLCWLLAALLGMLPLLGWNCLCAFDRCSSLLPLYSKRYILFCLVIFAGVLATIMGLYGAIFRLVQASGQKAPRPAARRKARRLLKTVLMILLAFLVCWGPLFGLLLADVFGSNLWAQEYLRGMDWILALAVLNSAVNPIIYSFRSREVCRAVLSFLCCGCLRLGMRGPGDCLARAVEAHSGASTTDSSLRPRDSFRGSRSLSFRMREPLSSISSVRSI
- assay method text: Aequorin assay, agonist potency, S1P4
- experimental conditions: agonist mode, aequorin luminescence
Structures can show the parent of a compound that is named as a salt.
quantity kind: EC50

O=C(O)C1(CN2CC3(Cc4ccc(OCc5ccccc5F)cc4C3)C2)CC1 [Example 140] = > 1000 nM

Provide EC50 values for the following items, in order.
1. O=C(O)CN1CC2(Cc3ccc(OCCc4ccccc4)cc3C2)C1 [Example 60]
2. CCOc1c(F)cc(COc2ccc3c(c2)CC2(C3)CN(CC3(C(=O)O)CC3)C2)cc1F [Example 120]
3. CC(C)Oc1ccc(C#Cc2ccc3c(c2)CC2(C3)CN(CC3(C(=O)O)CC3)C2)cc1 [Example 113]
4. Cc1cccc(F)c1COc1ccc2c(c1)CC1(C2)CN(CC(=O)O)C1 [Example 17]
5. O=C(O)CN1CC2(Cc3ccc(OCc4cc(Cl)ccc4Cl)cc3C2)C1 [Example 23]
6. CC(C)Oc1ccc(C#Cc2ccc3c(c2)CC2(C3)CN(CC3(C(=O)O)CC3)C2)cn1 [Example 114]
7. CCc1cccc(F)c1COc1ccc2c(c1)CC1(CCN(CC(=O)O)CC1)C2 [Example 159, hydrochloride]

1: > 1000 nM; 2: < 1000 nM; 3: > 1000 nM; 4: < 1000 nM; 5: < 1000 nM; 6: > 1000 nM; 7: < 1000 nM

Provide EC50 values for the following items, in order.
1. CC(Oc1ccc(C#Cc2ccc3c(c2)CC2(C3)CN(CC(=O)O)C2)cn1)C(F)(F)F (stereo not shown) [Example 79]
2. CCCCc1ccc(COc2ccc3c(c2)CC2(C3)CN(CC(=O)O)C2)c(Cl)c1 [Example 3]
3. O=C(O)CN1CC2(Cc3ccc(C#Cc4cccc(Cl)c4)cc3O2)C1 [Example 152]
4. COc1ccc(COc2ccc3c(c2)CC2(C3)CN(CC3(C(=O)O)CC3)C2)c(C)n1 [Example 121]
5. CCCc1ccc(COc2ccc3c(c2)CC2(C3)CN(CC3(C(=O)O)CC3)C2)c(OC)c1 [Example 2]
6. O=C(O)CN1CC2(Cc3ccc(C#Cc4ccccc4)cc3C2)C1 [Example 82]

1. < 1000 nM
2. < 1000 nM
3. < 1000 nM
4. > 1000 nM
5. < 1000 nM
6. < 1000 nM

Provide EC50 values for the following items, in order.
1. COc1ccc(C#Cc2ccc3c(c2)CC2(C3)CN(C3CC(C(=O)O)C3)C2)c(C)c1 (stereo not shown) [Example 101]
2. O=C(O)[C@H]1C[C@@H](N2CC3(Cc4ccc(OCc5cc(Cl)ccc5Cl)cc4C3)C2)C1 [Example 90]

< 1000 nM
< 1000 nM

Where do the numbers come from? From patent US20200055817A1.
